Recorded measurements of Residual rate, one per entry
# METHOD_NOTES: Evaluation of conversion rate to active form in buffer solution (Experimental Example 1)
# Format: physicochemical
# CONDITION: pH7.0, 2 hr, 37° C., 25 umol/L in buffer solution
Structures can show the parent of a compound that is named as a salt.
Quick reminder: number only, in %, skip the unit.

1. CCN(C[C@H]1CCCCN1)C(=O)Oc1cc(O)c2c(=O)cc(-c3ccccc3Cl)oc2c1[C@H]1CCN(C)C[C@H]1O    19.9
2. CN1CC[C@H](c2c(OC(=O)N(C)C[C@H]3CCCCN3)cc(O)c3c(=O)cc(-c4ccccc4Cl)oc23)[C@H](O)C1    0.0
3. CN1CC[C@H](c2c(OC(=O)N(CCC(F)(F)F)CC3CCCCN3)cc(O)c3c(=O)cc(-c4ccccc4Cl)oc23)[C@H](O)C1 (stereo partly shown)    0.4
4. CCN(C[C@@H]1CCCCN1)C(=O)Oc1cc(O)c2c(=O)cc(-c3ccccc3Cl)oc2c1[C@H]1CCN(C)C[C@H]1O [Example 1, ditrifluoroacetate]    33.5
5. CCN(CCC1CCCCN1)C(=O)Oc1cc(O)c2c(=O)cc(-c3ccccc3Cl)oc2c1[C@H]1CCN(C)C[C@H]1O (stereo partly shown)    16.9
6. CCCN(C[C@@H]1CCCCN1)C(=O)Oc1cc(O)c2c(=O)cc(-c3ccccc3Cl)oc2c1[C@H]1CCN(C)C[C@H]1O    28.7

Residual rate lookup needed for CN1CC[C@H](c2c(OC(=O)N(C)C[C@@H]3CCCCN3)cc(O)c3c(=O)cc(-c4ccccc4Cl)oc23)[C@H](O)C1 , thanks.
20.2

Same thing, different compound: CN1CC[C@H](c2c(OC(=O)N(CCF)CC3CCCCN3)cc(O)c3c(=O)cc(-c4ccccc4Cl)oc23)[C@H](O)C1 (stereo partly shown)
17.1

Same thing, different compound: CN1CC[C@H](c2c(OC(=O)N(Cc3ccccc3)CC3CCCCN3)cc(O)c3c(=O)cc(-c4ccccc4Cl)oc23)[C@H](O)C1 (stereo partly shown)
3.8

Same thing, different compound: CCN(CC1CCCCN1)C(=O)Oc1cc(O)c2c(=O)cc(-c3ccccc3Cl)oc2c1[C@H]1CCN(C)C[C@H]1O (stereo partly shown) [Example 7, dihydrochloride]
47.1

Same thing, different compound: CN1CC[C@H](c2c(OC(=O)N(C)CC3CCCCN3)cc(O)c3c(=O)cc(-c4ccccc4Cl)oc23)[C@H](O)C1 (stereo partly shown)
49.0

Same thing, different compound: CCCN(CC1CCCCN1)C(=O)Oc1cc(O)c2c(=O)cc(-c3ccccc3Cl)oc2c1[C@H]1CCN(C)C[C@H]1O (stereo partly shown)
31.0

Same thing, different compound: COCCN(CC1CCCCN1)C(=O)Oc1cc(O)c2c(=O)cc(-c3ccccc3Cl)oc2c1[C@H]1CCN(C)C[C@H]1O (stereo partly shown)
0.0

Value source: patent US12617779B2
